- Procedure details: Rat pharmacokinetic study, first study
- Type: in vivo, rats (Sprague Dawley, male)
- Condition summary: Sprague Dawley, rat, plasma; Male S-D Rats, Oral (Gavage) 15 mg/kg; ratio of dose-normalized AUC0-10 oral/IV; read-out: F (%)
- Description: In the first study, the crystalline indibulin, 10% A and 25% A SDDs were administered p.o. at 10 and 15 mg/kg to rats (Sprague Dawley, male) and plasma concentrations of indibulin were determined at several time points. In particular, all rats used in this study were fasted 12 hours prior to dose, and food was returned 4 hours post dose. […] There were six rats per group, all animals were weighed and dose volume calculated so that each rat received test article orally at a volume of 10 mL/kg. […]
Parameter measured: bioavailability (%)
Your answer should be a plain number; it is taken to be in %.

In: Request the reported bioavailability associated with O=C(Nc1ccncc1)C(=O)c1cn(Cc2ccc(Cl)cc2)c2ccccc12 [Bulk Crystalline Drug, indibulin]
Out: 1.5

====

- Procedure details: Rat pharmacokinetic study, second study (dose response)
- Assay type: in vivo, rats
- Condition summary: plasma, po; Second Study, rat p.o. 20 mg/kg (120 mg/m^2)
Parameter measured: AUC(0-t) (ng·h/mL)
Your answer should be a plain number; it is taken to be in ng·h/mL.

In: Request the reported AUC(0-t) associated with "O=C(Nc1ccncc1)C(=O)c1cn(Cc2ccc(Cl)cc2)c2ccccc12"
Out: 110

====

- Procedure details: Rat pharmacokinetic study, first study
- Format: in vivo, rats (Sprague Dawley, male)
- Condition summary: male, Sprague Dawley, rat, plasma, po, 10 mg/kg, Male S-D Rats, Oral (Gavage) 10 mg/kg
Parameter measured: Cmax (ng/mL)
Your answer should be a plain number; it is taken to be in ng/mL.

In: Request the reported Cmax associated with "O=C(Nc1ccncc1)C(=O)c1cn(Cc2ccc(Cl)cc2)c2ccccc12"
Out: 18

====

- Procedure details: Rat pharmacokinetic study, second study (dose response)
- Type: in vivo, rats
- Condition summary: plasma, po; rat p.o. 15 mg/kg, second study, 4 h; read-out: plasma indibulin
Parameter measured: concentration at 4 h
Form field: result (number plus unit)

In: Request the reported concentration at 4 h associated with "O=C(Nc1ccncc1)C(=O)c1cn(Cc2ccc(Cl)cc2)c2ccccc12"
Out: 24 ng/mL

====

- Procedure details: Rat pharmacokinetic study, second study (dose response)
- Type: in vivo, rats
- Condition summary: plasma, po; rat p.o. 15 mg/kg, second study, 0.5 h; read-out: plasma indibulin
Parameter measured: concentration at 0.5 h (ng/mL)
Your answer should be a plain number; it is taken to be in ng/mL.

In: Request the reported concentration at 0.5 h associated with "O=C(Nc1ccncc1)C(=O)c1cn(Cc2ccc(Cl)cc2)c2ccccc12"
Out: 10

====

- Procedure details: Rat pharmacokinetic study, second study (dose response)
- Format: in vivo, rats
- Condition summary: plasma, po; rat p.o. 20 mg/kg, second study, 10 h; read-out: plasma indibulin
Parameter measured: concentration at 10 h

In: Request the reported concentration at 10 h associated with O=C(Nc1ccncc1)C(=O)c1cn(Cc2ccc(Cl)cc2)c2ccccc12 [Bulk Crystalline Drug, indibulin]
Out: 6 ng/mL

====

- Procedure details: Rat pharmacokinetic study, second study (dose response)
- Assay type: in vivo, rats
- Condition summary: plasma, po; Second Study, rat p.o. 10 mg/kg (60 mg/m^2)
Parameter measured: AUC(0-t) (ng·h/mL)
Your answer should be a plain number; it is taken to be in ng·h/mL.

In: Request the reported AUC(0-t) associated with O=C(Nc1ccncc1)C(=O)c1cn(Cc2ccc(Cl)cc2)c2ccccc12 [Bulk Crystalline Drug, indibulin]
Out: 48

====

- Procedure details: Rat pharmacokinetic study, second study (dose response)
- Assay type: in vivo, rats
- Condition summary: plasma, po; Second Study, rat p.o. 15 mg/kg (90 mg/m^2)
Parameter measured: AUC(0-t) (µg·h/mL)
Your answer should be a plain number; it is taken to be in µg·h/mL.

In: Request the reported AUC(0-t) associated with "O=C(Nc1ccncc1)C(=O)c1cn(Cc2ccc(Cl)cc2)c2ccccc12"
Out: 0.146

====

- Procedure details: Rat pharmacokinetic study, first study
- Assay type: in vivo, rats (Sprague Dawley, male)
- Condition summary: Sprague Dawley, rat, plasma; Male S-D Rats, Oral (Gavage) 15 mg/kg; read-out: Terminal t1/2 (converted)
Parameter measured: half-life (h)
Your answer should be a plain number; it is taken to be in h.

In: Request the reported half-life associated with "O=C(Nc1ccncc1)C(=O)c1cn(Cc2ccc(Cl)cc2)c2ccccc12"
Out: 5.9

====

- Procedure details: Rat pharmacokinetic study, second study (dose response)
- Type: in vivo, rats
- Condition summary: plasma, po; rat p.o. 10 mg/kg, second study, 2 h; read-out: plasma indibulin
Parameter measured: concentration at 2 h (ng/mL)
Your answer should be a plain number; it is taken to be in ng/mL.

In: Request the reported concentration at 2 h associated with "O=C(Nc1ccncc1)C(=O)c1cn(Cc2ccc(Cl)cc2)c2ccccc12"
Out: 9

====

- Procedure details: Rat pharmacokinetic study, second study (dose response)
- Type: in vivo, rats
- Condition summary: plasma, po; rat p.o. 10 mg/kg, second study, 6 h; read-out: plasma indibulin
Parameter measured: concentration at 6 h
Form field: result (number plus unit)

In: Request the reported concentration at 6 h associated with "O=C(Nc1ccncc1)C(=O)c1cn(Cc2ccc(Cl)cc2)c2ccccc12"
Out: 7 ng/mL

====

- Procedure details: Rat pharmacokinetic study, second study (dose response)
- Assay type: in vivo, rats
- Condition summary: plasma, po; rat p.o. 20 mg/kg, second study, 6 h; read-out: plasma indibulin
Parameter measured: concentration at 6 h (ng/mL)
Your answer should be a plain number; it is taken to be in ng/mL.

In: Request the reported concentration at 6 h associated with "O=C(Nc1ccncc1)C(=O)c1cn(Cc2ccc(Cl)cc2)c2ccccc12"
Out: 7

====

- Procedure details: Rat pharmacokinetic study, second study (dose response)
- Type: in vivo, rats
- Condition summary: plasma, po; rat p.o. 15 mg/kg, second study, 1 h; read-out: plasma indibulin
Parameter measured: concentration at 1 h
Form field: result (number plus unit)

In: Request the reported concentration at 1 h associated with O=C(Nc1ccncc1)C(=O)c1cn(Cc2ccc(Cl)cc2)c2ccccc12 [Bulk Crystalline Drug, indibulin]
Out: 17 ng/mL

====

- Procedure details: Rat pharmacokinetic study, second study (dose response)
- Format: in vivo, rats
- Condition summary: plasma, po; rat p.o. 15 mg/kg, second study, 2 h; read-out: plasma indibulin
- Protocol: The second study was designed to determine the dose response of indibulin plasma concentration with the 10% A SDD formulation. In general, 10% A SDD was administered p.o. at 10, 15 and 20 mg/kg and plasma indibulin concentrations were determined at several time points. All rats used in the second study were fasted 12 hours prior to dose, and food was returned 4 hours post dose. […] The plasma was decanted into labeled Eppendorfs and stored at −80° C. until analyzed by HPLC with MS/MS Detection. […]
Parameter measured: concentration at 2 h
Form field: result (number plus unit)

In: Request the reported concentration at 2 h associated with "O=C(Nc1ccncc1)C(=O)c1cn(Cc2ccc(Cl)cc2)c2ccccc12"
Out: 17 ng/mL

====

- Procedure details: Rat pharmacokinetic study, second study (dose response)
- Type: in vivo, rats
- Condition summary: plasma, po; rat p.o. 20 mg/kg, second study, 2 h; read-out: plasma indibulin
Parameter measured: concentration at 2 h (µg/mL)
Your answer should be a plain number; it is taken to be in µg/mL.

In: Request the reported concentration at 2 h associated with "O=C(Nc1ccncc1)C(=O)c1cn(Cc2ccc(Cl)cc2)c2ccccc12"
Out: 0.014

====

- Procedure details: Rat pharmacokinetic study, first study
- Assay type: in vivo, rats (Sprague Dawley, male)
- Condition summary: male, Sprague Dawley, rat, plasma, po, 10 mg/kg, Male S-D Rats, Oral (Gavage) 10 mg/kg; read-out: AUC0-10
Parameter measured: AUC(0-t)
Form field: result (number plus unit)

In: Request the reported AUC(0-t) associated with "O=C(Nc1ccncc1)C(=O)c1cn(Cc2ccc(Cl)cc2)c2ccccc12"
Out: 63.6 ng·h/mL

====

- Procedure details: Rat pharmacokinetic study, first study
- Assay type: in vivo, rats (Sprague Dawley, male)
- Condition summary: male, Sprague-Dawley, rat, plasma, po, 15 mg/kg, Male S-D Rats, Oral (Gavage) 15 mg/kg
Parameter measured: Cmax (ng/mL)
Your answer should be a plain number; it is taken to be in ng/mL.

In: Request the reported Cmax associated with "O=C(Nc1ccncc1)C(=O)c1cn(Cc2ccc(Cl)cc2)c2ccccc12"
Out: 13

====

- Procedure details: Rat pharmacokinetic study, second study (dose response)
- Format: in vivo, rats
- Condition summary: plasma, po; rat p.o. 20 mg/kg, second study, 1 h; read-out: plasma indibulin
Parameter measured: concentration at 1 h (ng/mL)
Your answer should be a plain number; it is taken to be in ng/mL.

In: Request the reported concentration at 1 h associated with "O=C(Nc1ccncc1)C(=O)c1cn(Cc2ccc(Cl)cc2)c2ccccc12"
Out: 12
